Tested on: UACC-257
Assay: NCI tumour cell line growth inhibition, 48 h
Active and inactive are the calls of the source. Cut-off read from the data, not from the text of the source: active = GI50 up to about 1.1 µM and inactive = higher.
# reported GI50; entries follow

Example molecules with recorded GI50:
molecule	target	GI50
Nc1ncnc2c1nnn2C1CCC(CP(=O)(O)O)C1 (stereo not given)	UACC-257	> 100 µM (inactive)
CCCCCCCCCC[S+]([O-])CC(CO)NC(=O)/C=C/c1c(C)nc(O)nc1O (stereo not given)	UACC-257	1.33 µM (inactive)
COc1ccc(C[P+]2(c3ccccc3)CCCCC2)cc1.O=[N+]([O-])c1ccc(C[P+]2(c3ccccc3)CCCCC2)cc1.[O-][Cl+3]([O-])([O-])[O-].[O-][Cl+3]([O-])([O-])[O-]	UACC-257	29.6 µM (inactive)

Q: // map Nc1nc2ccc(OCC(O)CN3CCCCC3)cc2[n+]([O-])n1 (stereo not given) to recorded GI50 (system: UACC-257)
Result: > 100 µM (inactive)

Q: And CCOP(=O)(OCC)/C(C#N)=C/c1ccc(-c2ccc(F)cc2F)o1 ?
Result: 13.3 µM (inactive)

Q: And CC1(C)CC2(C)ON=C(c3ccccc3)N2c2ccccc2N1 (stereo not given) ?
Result: 24.4 µM (inactive)

Q: And Cc1nnc(N/N=C(/C(=O)C(C#N)c2ccc(Cl)cc2)C(C#N)c2ccc(Cl)cc2)n1N (stereo not given) ?
Result: 17.4 µM (inactive)

Q: And CCCCCCCCCCCCCCCc1ccc(OCC(O)CO)cc1 (stereo not given) ?
Result: 38.8 µM (inactive)

Q: And OC(c1ccc(Br)cc1)(c1cccs1)C1CC1 (stereo not given) ?
Result: 27 µM (inactive)

Q: And O=C(O)c1nc2ccc(C(F)(F)F)cc2nc1Nc1ccc(Cl)c(Cl)c1 ?
Result: 29.2 µM (inactive)
